Reference source: patent US6080791A

# protocol: in vitro
# details: dog, mdck
attribute.measured: cytotoxicity at 15 h, 100 µM
Express your answer as a number followed by its unit.

Task: Which value of cytotoxicity at 15 h, 100 µM has been reported for Oc1cccc2c(O)cccc12 [Compound 126, 1,5-naphthalenediol] in the records?
Output: -7.6%

Task: Now try Oc1ccc2ccccc2c1O [Compound 124, 1,2-dihydroxynaphthalene] .
Output: 80.5%

Task: Now try O=C1C=C(O)C(=O)c2ccccc21 [Compound 120, 2-hydroxy-1,4-naphthoquinone] .
Output: -7%

Task: Now try O=C1C=CC(=O)c2ccccc21 [Compound 90, 1,4-naphthoquinone] .
Output: 96.8%

Task: Now try O=C1C=CC(=O)c2cc3ccccc3cc21 [Compound 114, 1,4-anthraquinone] .
Output: 102%

====

Provide the recorded IC50 for the entries that follow.
# target.of.assay: HIV-1 fusion protein (Human immunodeficiency virus type 1 group M subtype B, UniProt P04578)
# protocol: Inhibition of fusion mediated by the HIV-1 fusion protein
Express your answer as a number followed by its unit.

Task: Which value of IC50 has been reported for O=C1C=CC(=O)c2ccccc21 in the records?
Output: 2 µM

Task: Now try COc1ccc(O)c2ccccc12 .
Output: 50 µM

====

# target.of.assay: hemagglutinin (BHA), fusion peptide exposure (Influenza A virus (A/X-31(H3N2)))
# Assay type: biochemical, C22 / X31 influenza virus (H3N2)
# details: Table 7
attribute.measured: activity note in Table 7

Consider the reported activity note in Table 7 for these compounds:
{"compound": "CCOC(=O)c1c(C)cc(O)cc1O [Compound 122, ethyl 2,4-dihydroxy-6-methylbenzoate]", "activity note in Table 7": "inactive"}
{"compound": "O=C1C2C3C=CC(C3)C2C(=O)N1O (stereo not drawn) [Compound 94, N-hydroxy-5-norbornene-2,3-dicarboximide]", "activity note in Table 7": "inactive"}
{"compound": "O=C(O)C1C2C=CC(O2)C1C(=O)O (stereo not drawn) [Compound 86]", "activity note in Table 7": "inactive"}
{"compound": "CC(=O)OC1CC2CC1C1C3C=CC(C3)C21 (stereo not drawn) [Compound 88]", "activity note in Table 7": "inactive"}
{"compound": "O=C1C=CC(=O)c2c(O)cccc21 [Compound 119, 5-hydroxy-1,4-naphthoquinone]", "activity note in Table 7": "inactive"}

Task: Which value of activity note in Table 7 has been reported for O=C(O)[C@@H]1[C@H](C(=O)O)[C@@H]2C=C[C@H]1C2 [Compound 89] in the records?
Output: inactive

====

# Tested on: hemoglobin
# protocol: Hb control (quenching of OD570 of hemoglobin)
# Parameters: species or system human
# details: log conc -4 (M)
Provide the recorded Hb control % ↓ OD for the entries that follow.
Dear colleague, please return just the value in %, with no unit written.

Task: hemoglobin / Hb control % ↓ OD / COC(=O)C1C=CCC2C(=O)C=CC(=O)C12 (stereo not shown) [Compound 97] : value?
Output: 37.6

Task: Now try CC(C)(C)c1cc(O)ccc1O [Compound 117, tert-butylhydroquinone] .
Output: 9.9

Task: Now try O=C(O)C1C=CCC2C(=O)C=CC(=O)C12 (stereo not shown) [Compound 91] .
Output: 26.8

Task: Now try O=C1C=CC(=O)c2ccccc21 [Compound 90, 1,4-naphthoquinone] .
Output: 57.1

Task: Now try O=C1C=C(O)C(=O)c2ccccc21 [Compound 120, 2-hydroxy-1,4-naphthoquinone] .
Output: 4.4

Task: Now try Oc1ccc(O)c2c1C1CCC2C1 [Compound 111, 3',6'-dihydroxybenzonorbornane] .
Output: 40.4

Task: Now try Cc1cc(O)c(C)cc1O [Compound 116, 2,5-dimethylhydroquinone] .
Output: 31.6

====

# System: C22 virus in MDCK2 cells
# protocol: microbe, parasite or virus in culture
# details: unidentified influenza virus, MDCK2, read-out: INF, negative log of IC50 (converted)
Provide the recorded IC50 for the entries that follow.

Task: Which value of IC50 has been reported for O=C1C=C(O)C(=O)c2ccccc21 [Compound 120, 2-hydroxy-1,4-naphthoquinone] in the records?
Output: > 1000 µM

Task: Now try Cc1cc(O)c(C)cc1O [Compound 116, 2,5-dimethylhydroquinone] .
Output: 10 to 100 µM

Task: Now try CC(C)(C)c1cc(O)ccc1O [Compound 117, tert-butylhydroquinone] .
Output: 10 to 100 µM

Task: Now try Oc1cccc2c(O)cccc12 .
Output: > 100 µM

Task: Now try O=C1C=CC(=O)c2ccccc21 .
Output: 10 µM

Task: Now try Oc1ccc(O)c2c1C1CCC2C1 [Compound 111, 3',6'-dihydroxybenzonorbornane] .
Output: 10 µM

Task: Now try Cc1c(O)ccc(O)c1C [Compound 99, 2,3-dimethylhydroquinone] .
Output: > 10 µM

====

# protocol: in vitro
# details: dog, mdck
Provide the recorded cytotoxicity at 15 h, 1 µM for the entries that follow.

Task: Which value of cytotoxicity at 15 h, 1 µM has been reported for O=C1C=CC(=O)c2ccccc21 in the records?
Output: -6.7%

Task: Now try Cc1cc(O)c(C)cc1O [Compound 116, 2,5-dimethylhydroquinone] .
Output: 3.6%

Task: Now try O=C1C=CC(=O)C2C3C=CC(C3)C12 (stereo not drawn) [Compound 83K] .
Output: 3.4%

====

Provide the recorded cytotoxicity at 15 h, 100 µM for the entries that follow.
# protocol: in vitro
# details: dog, mdck
Dear colleague, please return just the value in %, with no unit written.

Task: Which value of cytotoxicity at 15 h, 100 µM has been reported for CC(C)(C)c1cc(O)ccc1O [Compound 117, tert-butylhydroquinone] in the records?
Output: -26.1

Task: Now try Cl.Nc1ccc(O)c2ccccc12 [Compound 121, 4-amino-1-naphthol hydrochloride] .
Output: 100

Task: Now try Oc1ccc(O)c2c1C1CCC2C1 [Compound 111, 3',6'-dihydroxybenzonorbornane] .
Output: 41

Task: Now try O=C(O)C1C=CCC2C(=O)C=CC(=O)C12 (stereo not shown) .
Output: -4.3

Task: Now try Cc1cc(O)c(C)cc1O [Compound 116, 2,5-dimethylhydroquinone] .
Output: -23.6

Task: Now try COc1ccc(O)c2ccccc12 .
Output: 96.9

Task: Now try O=C1C=CC(=O)c2c(O)cccc21 [Compound 119, 5-hydroxy-1,4-naphthoquinone] .
Output: 97.8

Task: Now try COC(=O)C1C=CCC2C(=O)C=CC(=O)C12 (stereo not shown) .
Output: 95.9

Task: Now try Cc1c(O)ccc(O)c1C [Compound 99, 2,3-dimethylhydroquinone] .
Output: 99.4

Task: Now try Oc1ccc(O)c(-c2ccccc2)c1 [Compound 105, phenylhydroquinone] .
Output: 100

Task: Now try O=C1C=CC(=O)C2C3C=CC(C3)C12 (stereo not shown) [Compound 83K] .
Output: 46.4

Task: Now try Oc1ccc(O)c2ccccc12 [Compound 110, 1,4-dihydroxynaphthalene] .
Output: 98.3

Task: Now try Oc1ccc(Cl)c2ccccc12 .
Output: 97.4

====

# target.of.assay: hemagglutinin (BHA), fusion peptide exposure (Influenza A virus (A/X-31(H3N2)), UniProt P03438)
# Sequence (P03438 whole entry, looked up, the tested form may be a part): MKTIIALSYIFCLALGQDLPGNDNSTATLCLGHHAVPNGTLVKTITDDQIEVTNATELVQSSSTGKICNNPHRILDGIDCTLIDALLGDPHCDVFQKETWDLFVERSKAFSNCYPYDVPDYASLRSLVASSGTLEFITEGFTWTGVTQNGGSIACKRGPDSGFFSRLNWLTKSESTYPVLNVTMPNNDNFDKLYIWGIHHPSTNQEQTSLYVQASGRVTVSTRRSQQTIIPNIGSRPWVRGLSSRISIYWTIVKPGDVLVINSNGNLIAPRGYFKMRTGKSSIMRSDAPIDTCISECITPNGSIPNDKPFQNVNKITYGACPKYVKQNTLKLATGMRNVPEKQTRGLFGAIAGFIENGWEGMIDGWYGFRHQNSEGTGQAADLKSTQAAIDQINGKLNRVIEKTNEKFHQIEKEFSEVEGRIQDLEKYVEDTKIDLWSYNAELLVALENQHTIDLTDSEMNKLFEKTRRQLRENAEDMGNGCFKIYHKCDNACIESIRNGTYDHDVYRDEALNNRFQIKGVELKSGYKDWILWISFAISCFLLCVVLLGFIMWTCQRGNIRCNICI
# Type: biochemical, C22 / X31 influenza virus (H3N2)
# details: 1 μM-1 mM
attribute.measured: inhibition in the SPA assay

Consider the reported inhibition in the SPA assay for these compounds:
{"compound": "O=C1c2ccccc2C(=O)c2c(O)ccc(O)c21", "result": "showed no inhibition"}
{"compound": "CC(=O)OC1CC2CC1C1C3C=CC(C3)C21 (centres unmarked)", "result": "showed no inhibition"}
{"compound": "O=C(O)C1C2C=CC(O2)C1C(=O)O (centres unmarked)", "result": "showed no inhibition"}
{"compound": "O=c1[nH][nH]c(=O)c2ccccc12 [Compound 108, phthalhydrazide]", "result": "showed no inhibition"}

Task: Which value of inhibition in the SPA assay has been reported for Oc1cccc2ccccc12 in the records?
Output: showed no inhibition

====

# protocol: in vitro
# details: dog, mdck
Provide the recorded cytotoxicity at 15 h, 10 µM for the entries that follow.
Dear colleague, please return just the value in %, with no unit written.

Task: Which value of cytotoxicity at 15 h, 10 µM has been reported for COC(=O)C1C=CCC2C(=O)C=CC(=O)C12 (stereo not drawn) [Compound 97] in the records?
Output: 32.9

Task: Now try Cc1c(O)ccc(O)c1C [Compound 99, 2,3-dimethylhydroquinone] .
Output: -10.1

Task: Now try Cc1cc(O)c(C)cc1O [Compound 116, 2,5-dimethylhydroquinone] .
Output: -9.4

Task: Now try O=C1C=CC(=O)c2cc3ccccc3cc21 [Compound 114, 1,4-anthraquinone] .
Output: 53.7

Task: Now try CC(C)(C)c1cc(O)ccc1O [Compound 117, tert-butylhydroquinone] .
Output: -13.7

Task: Now try O=C(O)C1C=CCC2C(=O)C=CC(=O)C12 (stereo not drawn) [Compound 91] .
Output: -2

Task: Now try O=C1C=CC(=O)c2ccccc21 [Compound 90, 1,4-naphthoquinone] .
Output: 33

Task: Now try Oc1ccc(O)c2c1C1CCC2C1 [Compound 111, 3',6'-dihydroxybenzonorbornane] .
Output: -1.6

Task: Now try Oc1cccc2c(O)cccc12 [Compound 126, 1,5-naphthalenediol] .
Output: -9.2

Task: Now try Oc1ccc(O)c2ccccc12 [Compound 110, 1,4-dihydroxynaphthalene] .
Output: 19.2

Task: Now try O=C1C=C(O)C(=O)c2ccccc21 [Compound 120, 2-hydroxy-1,4-naphthoquinone] .
Output: -6

Task: Now try O=C1C=CC(=O)C2C3C=CC(C3)C12 (stereo not drawn) [Compound 83K] .
Output: 7.3
